Target: T1, TNFR1 (Homo sapiens, UniProt P19438)
T1 chain: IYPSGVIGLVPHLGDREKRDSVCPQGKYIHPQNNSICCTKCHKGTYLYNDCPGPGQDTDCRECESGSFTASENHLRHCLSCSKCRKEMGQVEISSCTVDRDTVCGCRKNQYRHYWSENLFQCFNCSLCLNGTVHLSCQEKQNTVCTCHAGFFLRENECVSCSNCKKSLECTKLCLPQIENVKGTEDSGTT
Test: yeast display SC50
assay.endpoint: apparent Kd (screen) (nM)
Unit nM implied. Number only.

Query: Entry E29Q (designed binder) MTLQELLREEALRRAEAEAFRYALELLAQKFPEQKEYLLDLAEEIESQIRSLSGVDVEDVRKFLDKEWAWVKELLAEHPAELAEVEAARAARLAELRAEVEAKVAA : reported apparent Kd (screen) = ?
Reply: 0.539

Query: Follow-up entry: E5S (designed binder) MTLQSLLREEALRRAEAEAFRYALELLAEKFPEQKEYLLDLAEEIESQIRSLSGVDVEDVRKFLDKEWAWVKELLAEHPAELAEVEAARAARLAELRAEVEAKVAA
Reply: 0.49

Source of measurements: paper PMC12416549
